Tested on: ACHN
Assay: NCI tumour cell line growth inhibition, 48 h
The source made the active and inactive calls. Rule as the data show it: active = GI50 up to about 1.1 µM and inactive = higher.
Labels: active, inactive

compound: Cc1ccc2c(c1)C(=O)c1ccc(C)nc1C2=O
assigned.category: inactive
//
compound: COc1cccc2c1CCc1cc3c(N)nc(N)nc3nc1-2
assigned.category: inactive
//
compound: CCc1nc2ccc(/N=N/N(C)C)cc2[nH]1
assigned.category: inactive
//
compound: CC(C)(C)NC(=O)NC12CC3CC(CC(F)(C3)C1)C2
assigned.category: inactive
//
compound: NS(=O)(=O)c1ccc(NC(=S)NC(=O)Nc2ccc(Cl)c(Cl)c2)cc1
assigned.category: inactive
//
compound: CC(=O)OCC1OC(n2c(-c3ccc(N)cc3)cc(-c3ccco3)c(C#N)c2=O)C(OC(C)=O)C(OC(C)=O)C1OC(C)=O (stereo unspecified)
assigned.category: inactive
//
compound: CN(C)CCNC(=O)c1cc(-c2nccn2C)nc2ccccc12
assigned.category: inactive
//
compound: CN(C)C(=O)NC(=S)N(C)C
assigned.category: inactive
//
compound: CCOC(=O)/C(=C/Nc1c(C)n(C)n(-c2ccccc2)c1=O)C(C)=O
assigned.category: inactive
//
compound: Cc1cc2c(c(/C=N/c3ccc([N+](=O)[O-])cc3)c1)OC1(C=C2)Oc2ccccc2C(=O)N1C (stereo unspecified)
assigned.category: inactive
//
compound: C/C(=C\CC/C=C(\C)CC/C=C(\C)CCC1SC1(C)C)CC/C=C(\C)CCC1OC1(C)C (stereo unspecified)
assigned.category: inactive
//
compound: NNC(=O)COc1nc(-c2cccs2)nc2ccc(I)cc12
assigned.category: inactive
//
compound: C[C@]12CC[C@@H]3c4ccccc4CC[C@H]3[C@@H]1CC[C@@H]2O
assigned.category: inactive
//
compound: COc1ccc2c(c1O)[C@@]13CCCC=C1[C@@H](C2)N(C)CC3
assigned.category: inactive
//
compound: Cc1cc(NS(=O)(=O)c2ccc(Nc3c4ccccc4nc4c(C(=O)NC(CO)(CO)CO)cccc34)cc2)no1
assigned.category: inactive
//
compound: CC(NC(=O)c1c(O)[nH]c(=S)[nH]c1=O)c1ccc([N+](=O)[O-])cc1 (stereo unspecified)
assigned.category: inactive
//
compound: CC1=NN(c2nc(N)nc(-c3sccc3N)n2)C(C)(C)C1
assigned.category: inactive
//
compound: CC(C)CC(=O)OC[n+]1cccc(-c2c(COC(=O)NC(C)C)c(COC(=O)NC(C)C)c3n2CCC3)c1
assigned.category: inactive
//
compound: Cc1c2oc3c(C)cc(F)c(C(=O)NC4C(=O)NC(C(C)C)C(=O)N5CCCC5C(=O)N(C)CC(=O)N(C)C(C(C)C)C(=O)OC4C)c3nc-2c(C(=O)NC2C(=O)NC(C(C)C)C(=O)N3CCCC3C(=O)N(C)CC(=O)N(C)C(C(C)C)C(=O)OC2C)c(N)c1=O (stereo unspecified)
assigned.category: active
//
compound: CCOC(=O)C1CCCCN1C(=O)OCc1ccccc1 (stereo unspecified)
assigned.category: inactive
//
compound: CC(=O)CC(=O)Nc1ccc2ccccc2c1
assigned.category: inactive
//
compound: Cc1cc(=O)nc(S(=O)(=O)NC(=S)Nc2ccc(Br)cc2)[nH]1
assigned.category: inactive
//
compound: CN/N=C(/C=C/c1ccccc1)C(C)C
assigned.category: inactive
//
compound: CCOc1ccccc1NC(=O)C(=O)CC(=O)c1sc(Nc2nnc(-c3ccc(Cl)c(Cl)c3)o2)nc1C
assigned.category: inactive
//
compound: Nc1ccc(C(=O)NN2C(=O)C(Cl)C2c2ccccc2)cc1 (stereo unspecified)
assigned.category: inactive
//
compound: O=C(Cn1c2ccc(Br)cc2c2nc3ccccc3nc21)NNC(=S)NC1CCCCC1
assigned.category: inactive
//
compound: O=C(CNC(c1ccccc1)(c1ccccc1)c1ccccc1)NC1CCCCC1NC(=O)CNC(c1ccccc1)(c1ccccc1)c1ccccc1 (stereo unspecified)
assigned.category: inactive
//
compound: COC(=O)[C@@H]1CCCN1CCN1CCC[C@H]1C(=O)OC
assigned.category: inactive
//
compound: CCN(CC)C(=O)c1c(Cl)cc(N(CC)CC)oc1=O
assigned.category: inactive
//
compound: CC(=O)NC(CCCCNC(=O)OCc1ccccc1)C(=O)NCc1ccccc1 (stereo unspecified)
assigned.category: inactive
//
compound: COC(=O)C1=C(N)C2=C(N)Oc3ccccc3C2CC1=C(C#N)C#N (stereo unspecified)
assigned.category: inactive
//
compound: O=C1CCCCC1CN1CCCC1 (stereo unspecified)
assigned.category: inactive
//
compound: COc1ccc(/C=C2\NC(=S)N(CN3CCOCC3)C2=O)cc1
assigned.category: inactive
//
compound: O=C(NCCCCCCO)c1cccc2cc3ccccc3nc12
assigned.category: inactive
//
compound: Cc1cc(NC[C@H](O)[C@H](O)[C@H](O)CO)c(Sc2cc(=O)[nH]c(=O)[nH]2)cc1C
assigned.category: inactive
//
compound: O=C(O)C(F)(OC(F)(F)C(F)(F)C(F)(F)F)C(F)(F)F (stereo unspecified)
assigned.category: inactive
//
compound: O=C(c1ccccc1)[C@@H]1C[C@H](Sc2ccccc2)c2cc(Cl)ccc2N1
assigned.category: inactive
//
compound: C[Si](C)(C)/C=C\CCO
assigned.category: inactive
//
compound: CSc1c(C#N)c(N)n2c1C(=O)N(c1ccccc1)C2=S
assigned.category: inactive
//
compound: C=C1C(=O)OC2C1CCC(C)C1(O)C=CC(=O)C21C (stereo unspecified)
assigned.category: inactive
//
compound: O=C(O)c1ccccc1/C=C1/Cc2ccc3c(c2C1=O)CCC3
assigned.category: inactive
